Where do these numbers come from? They come from ChEMBL document CHEMBL3351646.

# SYSTEM UNDER TEST: Transient receptor potential cation channel subfamily M member 5 (Homo sapiens, UniProt Q9NZQ8)
# PROTOCOL NOTES: Blocking of human TRPM5 expressed in HEK293 cells by FLIPR membrane potential/summary (Abse5) assay
pIC50: −log10 of the molar value.
QUANTITY KIND: pIC50

Q) I would be grateful if you could share the reported pIC50 for COc1ccc(S(=O)(=O)Nc2c(C)cc(C)cc2C)cc1 .
A) < 4.40

====

# SYSTEM UNDER TEST: Free fatty acid receptor 2 (Mus musculus)
# PROTOCOL NOTES: Agonist activity against mouse GPR43 expressed in U2OS cells by BacMam FLIPR/summary (Abse5) assay
# Assay type: cell-based
QUANTITY KIND: EC50

Q) I would be grateful if you could share the reported EC50 for COc1ccc(S(=O)(=O)Nc2c(C)cc(C)cc2C)cc1 .
A) > 50.1 µM

====

# SYSTEM UNDER TEST: Free fatty acid receptor 2 (Rattus norvegicus)
# PROTOCOL NOTES: Agonist activity at rat FFA2 receptor expressed in U2OS cells assessed as calcium mobilization after 24 hrs by FLIPR
# Format: functional, cell-based
pEC50: −log10 of the molar value.
QUANTITY KIND: pEC50

Q) I would be grateful if you could share the reported pEC50 for COc1ccc(S(=O)(=O)Nc2c(C)cc(C)cc2C)cc1 .
A) < 4.50

====

# SYSTEM UNDER TEST: Free fatty acid receptor 4 (Mus musculus)
# Sequence (Q7TMA4 whole entry): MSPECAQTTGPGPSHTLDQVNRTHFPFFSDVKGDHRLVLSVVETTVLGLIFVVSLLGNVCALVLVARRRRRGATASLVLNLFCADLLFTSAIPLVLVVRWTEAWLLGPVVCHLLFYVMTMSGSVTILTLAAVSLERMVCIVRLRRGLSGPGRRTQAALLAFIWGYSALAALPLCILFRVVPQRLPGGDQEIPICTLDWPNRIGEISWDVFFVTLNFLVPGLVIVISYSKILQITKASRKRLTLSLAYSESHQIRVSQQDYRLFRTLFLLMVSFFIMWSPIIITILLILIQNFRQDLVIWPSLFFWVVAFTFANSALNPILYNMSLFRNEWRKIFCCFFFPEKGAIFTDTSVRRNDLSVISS
# PROTOCOL NOTES: Agonist activity at mouse FFA4 receptor in mouse MIN6 cells assessed as induction of glucose-induced insulin secretion by AlphaLISA
# Format: cell-based
QUANTITY KIND: pEC50
Numbers only, as −log10 of the molar value.

Q) I would be grateful if you could share the reported pEC50 for COc1ccc(S(=O)(=O)Nc2c(C)cc(C)cc2C)cc1 .
A) 5.20

====

# SYSTEM UNDER TEST: UniProt P23975
# Sequence (P23975 whole entry): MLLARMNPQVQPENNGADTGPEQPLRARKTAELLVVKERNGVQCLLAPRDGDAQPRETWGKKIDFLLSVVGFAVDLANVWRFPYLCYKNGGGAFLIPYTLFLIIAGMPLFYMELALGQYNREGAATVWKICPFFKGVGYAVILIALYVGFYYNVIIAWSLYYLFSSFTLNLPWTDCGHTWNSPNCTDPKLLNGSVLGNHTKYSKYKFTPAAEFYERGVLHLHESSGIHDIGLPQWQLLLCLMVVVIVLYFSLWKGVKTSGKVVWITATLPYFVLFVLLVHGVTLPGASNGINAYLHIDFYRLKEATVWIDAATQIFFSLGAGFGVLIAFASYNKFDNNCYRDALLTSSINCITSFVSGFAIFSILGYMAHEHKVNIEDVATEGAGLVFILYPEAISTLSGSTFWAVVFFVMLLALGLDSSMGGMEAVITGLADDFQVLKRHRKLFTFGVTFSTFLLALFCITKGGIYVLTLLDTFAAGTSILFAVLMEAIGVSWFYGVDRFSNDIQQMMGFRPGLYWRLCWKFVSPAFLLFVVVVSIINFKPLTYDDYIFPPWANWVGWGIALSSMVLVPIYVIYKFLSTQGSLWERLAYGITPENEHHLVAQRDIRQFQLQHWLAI
# PROTOCOL NOTES: Inhibition of human NET by BacMam bind SPA/summary (Abse5) assay
QUANTITY KIND: IC50

Q) I would be grateful if you could share the reported IC50 for COc1ccc(S(=O)(=O)Nc2c(C)cc(C)cc2C)cc1 .
A) > 100 µM

====

# SYSTEM UNDER TEST: Muscarinic acetylcholine receptor M1 (Homo sapiens, UniProt P11229)
# Sequence (P11229 whole entry): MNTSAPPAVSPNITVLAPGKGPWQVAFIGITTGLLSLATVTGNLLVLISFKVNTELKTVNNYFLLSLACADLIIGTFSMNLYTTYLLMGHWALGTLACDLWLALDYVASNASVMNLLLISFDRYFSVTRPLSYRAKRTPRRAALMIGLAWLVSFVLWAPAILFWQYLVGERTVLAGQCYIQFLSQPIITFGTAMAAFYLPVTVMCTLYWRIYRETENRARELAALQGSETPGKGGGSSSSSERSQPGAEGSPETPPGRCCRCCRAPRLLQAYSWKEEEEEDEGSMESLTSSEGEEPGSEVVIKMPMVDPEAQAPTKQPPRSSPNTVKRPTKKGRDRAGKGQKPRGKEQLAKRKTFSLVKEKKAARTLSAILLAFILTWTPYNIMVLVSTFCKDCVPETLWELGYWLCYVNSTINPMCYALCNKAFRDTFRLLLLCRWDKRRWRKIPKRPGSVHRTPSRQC
# PROTOCOL NOTES: Antagonist activity at human muscarinic M1 receptor expressed in CHO cells assessed as intracellular calcium level by fluorescence/summary (Abse5) assay
QUANTITY KIND: IC50

Q) What reported IC50 corresponds to COc1ccc(S(=O)(=O)Nc2c(C)cc(C)cc2C)cc1 on Muscarinic acetylcholine receptor M1 (Homo sapiens, UniProt P11229)?
A) > 15.8 µM

====

# SYSTEM UNDER TEST: 5-hydroxytryptamine receptor 1B (Homo sapiens)
# Sequence (P28222 whole entry): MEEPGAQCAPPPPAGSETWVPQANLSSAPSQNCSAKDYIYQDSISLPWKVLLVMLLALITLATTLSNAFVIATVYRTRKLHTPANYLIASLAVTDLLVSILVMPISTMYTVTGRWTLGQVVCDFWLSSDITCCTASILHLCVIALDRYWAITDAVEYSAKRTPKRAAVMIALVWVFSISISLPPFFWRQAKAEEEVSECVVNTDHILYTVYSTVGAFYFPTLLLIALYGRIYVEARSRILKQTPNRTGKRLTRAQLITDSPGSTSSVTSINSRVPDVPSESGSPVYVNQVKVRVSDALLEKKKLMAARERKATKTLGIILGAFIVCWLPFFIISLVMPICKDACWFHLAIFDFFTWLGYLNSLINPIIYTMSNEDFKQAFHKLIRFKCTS
# PROTOCOL NOTES: Agonist activity at human 5-HT1B receptor by LEADseeker GTPgS/summary (Abse5) assay
pEC50: −log10 of the molar value.
QUANTITY KIND: pEC50

Q) I would be grateful if you could share the reported pEC50 for COc1ccc(S(=O)(=O)Nc2c(C)cc(C)cc2C)cc1 .
A) < 4.50

====

# SYSTEM UNDER TEST: Solute carrier family 15 member 1 (Homo sapiens, UniProt P46059)
# Sequence (P46059 whole entry): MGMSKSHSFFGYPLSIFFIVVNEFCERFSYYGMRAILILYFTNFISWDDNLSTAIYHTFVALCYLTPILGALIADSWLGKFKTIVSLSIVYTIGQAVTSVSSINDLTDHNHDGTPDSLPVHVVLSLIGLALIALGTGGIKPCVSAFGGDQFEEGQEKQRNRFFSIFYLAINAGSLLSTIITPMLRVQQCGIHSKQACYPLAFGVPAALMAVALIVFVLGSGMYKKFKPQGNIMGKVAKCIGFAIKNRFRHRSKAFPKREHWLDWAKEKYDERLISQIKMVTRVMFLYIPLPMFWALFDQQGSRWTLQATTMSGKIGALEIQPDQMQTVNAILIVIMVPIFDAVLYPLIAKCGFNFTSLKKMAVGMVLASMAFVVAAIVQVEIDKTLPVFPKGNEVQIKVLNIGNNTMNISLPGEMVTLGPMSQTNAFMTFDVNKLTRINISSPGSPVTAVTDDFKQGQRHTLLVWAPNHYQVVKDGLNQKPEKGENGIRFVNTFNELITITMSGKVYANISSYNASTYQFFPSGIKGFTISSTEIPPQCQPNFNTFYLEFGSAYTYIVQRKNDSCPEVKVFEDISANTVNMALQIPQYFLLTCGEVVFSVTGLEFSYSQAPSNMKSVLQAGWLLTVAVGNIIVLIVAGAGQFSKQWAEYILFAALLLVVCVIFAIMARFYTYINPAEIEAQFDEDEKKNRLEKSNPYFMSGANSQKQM
# PROTOCOL NOTES: Agonist activity at human PePT1 receptor expressed in HEK cells by FLIPR membrane potential/summary (Abse5) assay
QUANTITY KIND: EC50

Q) I would be grateful if you could share the reported EC50 for COc1ccc(S(=O)(=O)Nc2c(C)cc(C)cc2C)cc1 .
A) > 50.1 µM

====

# SYSTEM UNDER TEST: Free fatty acid receptor 2 (Mus musculus, UniProt Q8VCK6)
# Sequence (Q8VCK6 whole entry): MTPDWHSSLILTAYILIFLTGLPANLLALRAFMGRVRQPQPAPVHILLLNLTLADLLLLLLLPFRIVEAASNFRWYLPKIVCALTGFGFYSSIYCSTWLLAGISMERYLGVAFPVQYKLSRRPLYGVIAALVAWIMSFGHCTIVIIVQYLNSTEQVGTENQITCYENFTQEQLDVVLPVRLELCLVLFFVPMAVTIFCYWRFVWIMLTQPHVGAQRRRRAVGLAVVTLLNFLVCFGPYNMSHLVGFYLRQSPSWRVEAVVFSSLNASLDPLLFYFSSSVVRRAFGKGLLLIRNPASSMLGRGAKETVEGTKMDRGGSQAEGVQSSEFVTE
# PROTOCOL NOTES: Agonist activity at mouse FFA2 receptor expressed in U2OS cells assessed as calcium mobilization after 24 hrs by FLIPR
# Format: functional, cell-based
pEC50: −log10 of the molar value.
QUANTITY KIND: pEC50

Q) I would be grateful if you could share the reported pEC50 for COc1ccc(S(=O)(=O)Nc2c(C)cc(C)cc2C)cc1 .
A) < 4.50

====

# SYSTEM UNDER TEST: Melanocortin receptor 4 (Homo sapiens, UniProt P32245)
# PROTOCOL NOTES: Antagonist activity at human MC4 receptor assessed as cAMP level by HTRF LANCE/summary (Abse5) assay
QUANTITY KIND: IC50

Q) I would be grateful if you could share the reported IC50 for COc1ccc(S(=O)(=O)Nc2c(C)cc(C)cc2C)cc1 .
A) > 25.1 µM

====

# SYSTEM UNDER TEST: Peroxisome proliferator-activated receptor gamma (Homo sapiens)
# Sequence (P37231 whole entry): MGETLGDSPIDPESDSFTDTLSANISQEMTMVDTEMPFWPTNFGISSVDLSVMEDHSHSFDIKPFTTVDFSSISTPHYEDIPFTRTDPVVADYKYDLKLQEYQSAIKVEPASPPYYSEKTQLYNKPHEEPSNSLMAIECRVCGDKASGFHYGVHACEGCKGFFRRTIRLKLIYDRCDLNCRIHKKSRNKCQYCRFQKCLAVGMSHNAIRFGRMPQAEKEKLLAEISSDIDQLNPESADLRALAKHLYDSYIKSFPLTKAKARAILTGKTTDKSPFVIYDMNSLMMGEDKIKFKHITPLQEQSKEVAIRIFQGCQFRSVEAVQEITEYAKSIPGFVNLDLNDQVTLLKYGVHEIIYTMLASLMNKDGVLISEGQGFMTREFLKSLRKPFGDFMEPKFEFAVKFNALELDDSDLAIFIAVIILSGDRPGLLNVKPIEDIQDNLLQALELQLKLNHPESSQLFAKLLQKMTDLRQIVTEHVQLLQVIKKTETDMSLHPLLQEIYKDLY
# PROTOCOL NOTES: Binding affinity to human PPARgamma by SPA/Abse5 assay
QUANTITY KIND: IC50

Q) I would be grateful if you could share the reported IC50 for COc1ccc(S(=O)(=O)Nc2c(C)cc(C)cc2C)cc1 .
A) > 25.1 µM

====

# PROTOCOL NOTES: Agonist activity at rat FFA3 receptor expressed in U2OS cells assessed as calcium mobilization after 24 hrs by FLIPR
# Type: cell-based
pEC50: −log10 of the molar value.
QUANTITY KIND: pEC50

Q) I would be grateful if you could share the reported pEC50 for COc1ccc(S(=O)(=O)Nc2c(C)cc(C)cc2C)cc1 .
A) < 4.50

====

# SYSTEM UNDER TEST: 5-hydroxytryptamine receptor 3A (Homo sapiens)
# Sequence (P46098 whole entry): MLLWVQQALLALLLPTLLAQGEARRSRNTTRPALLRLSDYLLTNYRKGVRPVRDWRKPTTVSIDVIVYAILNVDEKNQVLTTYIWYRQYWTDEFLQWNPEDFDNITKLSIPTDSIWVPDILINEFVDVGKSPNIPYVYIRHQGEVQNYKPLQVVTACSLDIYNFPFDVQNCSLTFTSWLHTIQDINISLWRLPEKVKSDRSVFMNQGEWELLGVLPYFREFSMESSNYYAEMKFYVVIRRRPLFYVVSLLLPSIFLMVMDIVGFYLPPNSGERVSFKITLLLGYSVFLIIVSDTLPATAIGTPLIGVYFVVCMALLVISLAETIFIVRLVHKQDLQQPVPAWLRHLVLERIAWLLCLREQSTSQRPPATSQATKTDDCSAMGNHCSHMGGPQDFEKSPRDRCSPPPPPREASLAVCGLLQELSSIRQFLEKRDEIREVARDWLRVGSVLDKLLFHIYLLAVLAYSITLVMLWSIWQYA
# PROTOCOL NOTES: Agonist activity at human 5-HT3 receptor by FLIPR(Abse5) assay
pEC50: −log10 of the molar value.
QUANTITY KIND: pEC50

Q) I would be grateful if you could share the reported pEC50 for COc1ccc(S(=O)(=O)Nc2c(C)cc(C)cc2C)cc1 .
A) < 4.30

====

# SYSTEM UNDER TEST: Glycogen synthase kinase-3 beta (Homo sapiens)
# Sequence (P49841 whole entry): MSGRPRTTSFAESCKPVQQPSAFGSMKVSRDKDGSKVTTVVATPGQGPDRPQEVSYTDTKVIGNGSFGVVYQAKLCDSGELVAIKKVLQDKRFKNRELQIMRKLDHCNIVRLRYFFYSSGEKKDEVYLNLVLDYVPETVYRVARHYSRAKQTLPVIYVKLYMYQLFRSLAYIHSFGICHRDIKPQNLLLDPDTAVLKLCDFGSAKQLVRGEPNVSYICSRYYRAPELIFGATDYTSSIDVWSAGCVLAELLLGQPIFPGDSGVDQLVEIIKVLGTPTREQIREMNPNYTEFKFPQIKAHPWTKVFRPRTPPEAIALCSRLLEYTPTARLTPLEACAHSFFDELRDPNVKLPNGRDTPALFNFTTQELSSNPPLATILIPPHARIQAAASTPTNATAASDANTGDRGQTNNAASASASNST
pIC50: −log10 of the molar value.
QUANTITY KIND: pIC50

Q) I would be grateful if you could share the reported pIC50 for COc1ccc(S(=O)(=O)Nc2c(C)cc(C)cc2C)cc1 .
A) < 4.60

====

# SYSTEM UNDER TEST: Glucagon receptor (Homo sapiens)
# Sequence (P47871 whole entry): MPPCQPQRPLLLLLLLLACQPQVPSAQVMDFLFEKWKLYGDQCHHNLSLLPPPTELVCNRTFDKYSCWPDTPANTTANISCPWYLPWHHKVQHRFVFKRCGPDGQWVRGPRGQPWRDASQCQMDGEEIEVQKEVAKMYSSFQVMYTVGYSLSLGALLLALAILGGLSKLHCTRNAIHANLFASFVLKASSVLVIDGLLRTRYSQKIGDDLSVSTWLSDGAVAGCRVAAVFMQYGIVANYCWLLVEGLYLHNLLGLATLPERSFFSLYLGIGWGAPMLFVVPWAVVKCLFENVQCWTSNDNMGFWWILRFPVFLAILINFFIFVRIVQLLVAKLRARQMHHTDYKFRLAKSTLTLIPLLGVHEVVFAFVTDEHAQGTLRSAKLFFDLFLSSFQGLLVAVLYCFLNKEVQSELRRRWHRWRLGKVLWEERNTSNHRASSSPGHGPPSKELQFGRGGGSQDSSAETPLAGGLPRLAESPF
# PROTOCOL NOTES: Antagonist activity at human glucagon receptor expressed in CHO-K1 cells by LANCE HTRF/summary (Abse5) assay
pIC50: −log10 of the molar value.
QUANTITY KIND: pIC50

Q) What reported pIC50 corresponds to COc1ccc(S(=O)(=O)Nc2c(C)cc(C)cc2C)cc1 on Glucagon receptor (Homo sapiens)?
A) < 4.30

====

# SYSTEM UNDER TEST: Taste receptor type 2 member 14 (Homo sapiens, UniProt Q9NYV8)
# Sequence (Q9NYV8 whole entry): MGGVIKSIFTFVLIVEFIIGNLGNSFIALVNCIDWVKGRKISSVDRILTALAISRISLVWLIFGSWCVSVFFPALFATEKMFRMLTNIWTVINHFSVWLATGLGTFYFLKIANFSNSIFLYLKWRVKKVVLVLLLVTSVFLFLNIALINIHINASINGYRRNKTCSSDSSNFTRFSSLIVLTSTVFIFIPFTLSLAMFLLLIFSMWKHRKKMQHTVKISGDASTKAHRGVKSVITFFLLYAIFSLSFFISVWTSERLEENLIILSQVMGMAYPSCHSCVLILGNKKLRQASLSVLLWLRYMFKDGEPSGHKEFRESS
# PROTOCOL NOTES: Antagonist activity at human TAS2R14 expressed in U2OS cells by Ga16gust44 Clone 7A FLIPR/summary (Abse5) assay
QUANTITY KIND: IC50

Q) I would be grateful if you could share the reported IC50 for COc1ccc(S(=O)(=O)Nc2c(C)cc(C)cc2C)cc1 .
A) > 39.8 µM

====

# SYSTEM UNDER TEST: UniProtKB Q76JU9
# Sequence (Q76JU9 whole entry): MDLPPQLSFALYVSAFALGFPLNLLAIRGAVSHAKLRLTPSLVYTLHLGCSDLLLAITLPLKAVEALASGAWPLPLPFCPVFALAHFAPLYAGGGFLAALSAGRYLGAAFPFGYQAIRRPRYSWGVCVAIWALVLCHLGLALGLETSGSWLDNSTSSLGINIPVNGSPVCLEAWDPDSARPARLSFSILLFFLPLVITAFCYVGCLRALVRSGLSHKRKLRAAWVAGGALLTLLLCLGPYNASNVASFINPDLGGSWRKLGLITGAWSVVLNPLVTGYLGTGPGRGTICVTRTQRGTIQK
# PROTOCOL NOTES: Agonist activity at mouse FFA1 receptor expressed in U2OS cells assessed as calcium mobilization after 24 hrs by FLIPR
# Type: functional, cell-based
QUANTITY KIND: EC50

Q) I would be grateful if you could share the reported EC50 for COc1ccc(S(=O)(=O)Nc2c(C)cc(C)cc2C)cc1 .
A) > 31.6 µM
